- systemName: human serum albumin site 2 (Homo sapiens, UniProt P02768)
- Sequence (P02768 whole entry): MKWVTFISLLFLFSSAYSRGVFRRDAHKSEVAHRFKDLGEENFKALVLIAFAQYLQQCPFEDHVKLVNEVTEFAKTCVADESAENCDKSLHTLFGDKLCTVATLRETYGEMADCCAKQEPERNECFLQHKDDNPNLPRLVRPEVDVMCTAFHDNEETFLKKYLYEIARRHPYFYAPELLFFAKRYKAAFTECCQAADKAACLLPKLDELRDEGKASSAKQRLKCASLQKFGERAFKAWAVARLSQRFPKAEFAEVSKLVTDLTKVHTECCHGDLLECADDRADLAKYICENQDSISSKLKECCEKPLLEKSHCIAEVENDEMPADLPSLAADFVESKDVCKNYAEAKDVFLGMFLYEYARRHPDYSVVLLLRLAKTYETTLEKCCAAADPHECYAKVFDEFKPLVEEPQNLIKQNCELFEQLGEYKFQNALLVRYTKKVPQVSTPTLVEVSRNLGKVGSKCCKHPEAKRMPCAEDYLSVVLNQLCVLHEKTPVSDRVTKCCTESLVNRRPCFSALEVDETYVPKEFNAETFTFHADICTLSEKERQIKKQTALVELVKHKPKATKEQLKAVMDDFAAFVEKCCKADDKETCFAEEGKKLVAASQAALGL
- methodDescription: in vitro
- recordedConditions: fatty acid-free human serum albumin, pH 7.4, probe dansylsarcosine
- Description: Displacement of radiolabeled dansylsarcosine from fatty acid-free human serum albumin site 2 in phosphate buffer at pH 7.4 at 12 uM by fluorescence spectroscopy
inhibition at 12 µM of 20% or higher: MET. Under 20%: NOT MET.

Examples with answers:
molecule=N[C@@H](Cc1c[nH]c2ccccc12)C(=O)O classification="NOT MET"
molecule="CC(=O)CC(c1ccc([N+](=O)[O-])cc1)c1c(O)c2ccccc2oc1=O (stereo not given)" classification="NOT MET"
molecule="CC(C)NCC(O)COc1cccc2[nH]ccc12 (stereo not given)" classification="NOT MET"
molecule=COc1ccc2cc([C@H](C)C(=O)O)ccc2c1 classification=MET

Moving on to another molecule below.
In: Answer whether inhibition at 12 µM of O=C1NC(=O)C(c2ccccc2)(c2ccccc2)N1 is greater than or equal to 20%.
Out: NOT MET
